Cited source: ChEMBL document CHEMBL1135665

Listed next: entries and their corresponding Selectivity.
# tgt: Opioid receptors; mu & delta (Rattus norvegicus) (UniProt P33533+P33535)
# Sequence (P33533 whole entry, looked up): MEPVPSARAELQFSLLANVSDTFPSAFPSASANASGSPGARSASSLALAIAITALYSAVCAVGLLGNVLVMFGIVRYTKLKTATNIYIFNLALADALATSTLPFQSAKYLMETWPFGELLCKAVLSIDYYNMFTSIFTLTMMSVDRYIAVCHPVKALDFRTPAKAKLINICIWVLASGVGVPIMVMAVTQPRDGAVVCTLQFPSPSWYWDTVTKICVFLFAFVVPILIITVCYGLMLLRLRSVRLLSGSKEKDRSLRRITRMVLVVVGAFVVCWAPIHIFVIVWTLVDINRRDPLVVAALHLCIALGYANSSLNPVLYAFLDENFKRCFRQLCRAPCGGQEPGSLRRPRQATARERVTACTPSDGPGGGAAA
# Sequence (P33535 whole entry, looked up): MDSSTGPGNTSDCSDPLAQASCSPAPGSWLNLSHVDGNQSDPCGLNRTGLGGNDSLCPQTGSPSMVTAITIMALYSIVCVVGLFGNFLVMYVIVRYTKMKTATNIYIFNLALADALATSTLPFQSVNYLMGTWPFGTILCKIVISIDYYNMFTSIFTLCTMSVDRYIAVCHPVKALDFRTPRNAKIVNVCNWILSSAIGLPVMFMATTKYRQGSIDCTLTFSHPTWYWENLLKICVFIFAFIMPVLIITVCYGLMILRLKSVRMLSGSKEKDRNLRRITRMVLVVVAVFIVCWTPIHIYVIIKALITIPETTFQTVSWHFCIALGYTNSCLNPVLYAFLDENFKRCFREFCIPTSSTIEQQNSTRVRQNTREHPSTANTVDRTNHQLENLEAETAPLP
# test-description: Selectivity ratio (Ki value towards mu receptor compared to that of delta receptor).
# Assay type: protein assay

| smiles-representation | tgt | Selectivity |
| --- | --- | --- |
| C=CCN1CC[C@]23c4c5ccc(O)c4O[C@H]2c2oc4ccccc4c2C[C@@]3(OCC)[C@H]1C5 | Opioid receptors; mu & delta (Rattus norvegicus) (UniProt P33533+P33535) | 19 |
| CCO[C@@]12Cc3c([nH]c4ccccc34)[C@]3(C)Oc4c(O)ccc5c4[C@@]31CCN(C)[C@@H]2C5 | Opioid receptors; mu & delta (Rattus norvegicus) (UniProt P33533+P33535) | 132 |
| CCCO[C@@]12Cc3c([nH]c4ccccc34)[C@]3(C)Oc4c(O)ccc5c4[C@@]31CCN(CC1CC1)[C@@H]2C5 | Opioid receptors; mu & delta (Rattus norvegicus) (UniProt P33533+P33535) | 105 |
| CO[C@@]12Cc3c([nH]c4ccccc34)[C@]3(C)Oc4c(O)ccc5c4[C@@]31CCN(C)[C@@H]2C5 | Opioid receptors; mu & delta (Rattus norvegicus) (UniProt P33533+P33535) | 15 |
